Recorded measurements of Caco_R3, one per entry
# Tested on: Caco-2 cells
# Protocol details: Caco-2 permeability assay (apical to basolateral)
# Type: in vitro ADME, human
# Assay context: Caco-2
Where a SMILES comes first, the peptide text is derived from it. [ ]: non-standard residue; d: D form. dNMeI = CC[C@@H](C)[C@@H](NC)C(=O)O; NMeF = CN[C@@H](Cc1ccccc1)C(=O)O; NMeL = CN[C@@H](CC(C)C)C(=O)O; dNMeL = CN[C@H](CC(C)C)C(=O)O; NMeA = CN[C@@H](C)C(=O)O

Compound	Caco_R3
CC[C@H](C)[C@@H]1NC(=O)[C@@H](CC(C)C)N(C)C(=O)[C@H](CC(C)C)N(C)C(=O)[C@@H](Cc2ccccc2)NC(=O)[C@@H](CC(C)C)N(C)C(=O)[C@H]2CCCN2C(=O)[C@H]2CCCN2C(=O)[C@@H]2CCCN2C(=O)[C@@H](C(C)C)NC(=O)[C@@H]2CCCN2C(=O)[C@H](C)NC1=O [Design D11.11] (cyclo(AP[dV]P[dP][dP][dNMeL][dF][NMeL][dNMeL]I))	5.78
CC[C@@H](C)[C@H]1NC(=O)[C@H]([C@@H](C)CC)NC(=O)[C@H](Cc2ccccc2)N(C)C(=O)[C@H]2CCCN2C(=O)[C@@H]([C@H](C)CC)NC(=O)[C@@H]([C@H](C)CC)N(C)C(=O)[C@H](CC(C)C)NC(=O)[C@H]2CCCN2C(=O)[C@@H]2CCCN2C(=O)[C@H](C(C)C)NC(=O)[C@H]2CCCN2C1=O [Design D11.4] (cyclo(I[dI][dP]VP[dP]L[dNMeI][dI][dP][NMeF]))	6.55
CC[C@H](C)[C@@H]1NC(=O)[C@@H]2CCCN2C(=O)[C@H]2CCCN2C(=O)[C@@H](CC(C)C)NC(=O)[C@@H](CC(C)C)N(C)C(=O)[C@@H](C(C)C)NC(=O)[C@H](C(C)C)NC(=O)[C@H]2CCCN2C(=O)[C@@H]2CCCN2C(=O)[C@H]([C@@H](C)CC)NC(=O)[C@H](C)N(C)C1=O [Design D11.13] (cyclo(I[NMeA]IP[dP]V[dV][dNMeL][dL][dP]P))	4.75

====

# Protocol details: Pharmacokinetics and oral bioavailability of D11.3 in male Swiss albino mice (IV, PO, SQ)
# Type: in vivo
# Assay context: mouse, in vivo; IV 1.00 mg/kg
Where a SMILES comes first, the peptide text is derived from it. [ ]: non-standard residue; d: D form. dNMeI = CC[C@@H](C)[C@@H](NC)C(=O)O; NMeL = CN[C@@H](CC(C)C)C(=O)O

Molecule	half-life, h
CC[C@@H](C)[C@H]1NC(=O)[C@H]([C@@H](C)CC)NC(=O)[C@H](CC(C)C)N(C)C(=O)[C@H]2CCCN2C(=O)[C@@H]([C@H](C)CC)NC(=O)[C@@H]([C@H](C)CC)N(C)C(=O)[C@H](CC(C)C)NC(=O)[C@H]2CCCN2C(=O)[C@@H]2CCCN2C(=O)[C@H](C(C)C)NC(=O)[C@H]2CCCN2C1=O [Design D11.3] (cyclo(I[dI][dP]VP[dP]L[dNMeI][dI][dP][NMeL]))	5.58

====

# Assay context: PAMPA
Where a SMILES comes first, the peptide text is derived from it. [ ]: non-standard residue; d: D form. NMeF = CN[C@@H](Cc1ccccc1)C(=O)O; NMeL = CN[C@@H](CC(C)C)C(=O)O; dNMeL = CN[C@H](CC(C)C)C(=O)O; NMeV = CN[C@H](C(=O)O)C(C)C
Reported endpoint: PAMPA_Papp_Avg

Compound	Value measured
CC(C)C[C@@H]1NC(=O)[C@H](C)NC(=O)[C@H](C)NC(=O)[C@H]2CCCN2C(=O)[C@H](Cc2ccccc2)N(C)C(=O)[C@H]2CCCN2C(=O)[C@H](CC(C)C)N(C)C(=O)[C@@H](CC(C)C)N(C)C(=O)[C@H](Cc2ccccc2)NC(=O)[C@@H](CC(C)C)NC1=O [Design D10.8] (cyclo(AAL[dL]F[dNMeL][NMeL][dP][NMeF][dP]))	BQL
CC[C@@H](C)[C@H]1NC(=O)[C@@H](CC(C)C)N(C)C(=O)[C@@H]2CCCN2C(=O)[C@H]([C@@H](C)CC)NC(=O)[C@H]([C@@H](C)CC)N(C)C(=O)[C@@H](CC(C)C)NC(=O)[C@@H](C(C)C)N(C)C(=O)[C@H]2CCCN2C(=O)[C@@H](C(C)C)NC(=O)[C@@H]2CCCN2C(=O)[C@H]([C@@H](C)CC)NC1=O (single isomer, unassigned) [Design D11.23.p1]	2.70E-06
CC[C@H](C)[C@@H]1NC(=O)[C@H]2CCCN2C(=O)[C@H](C(C)C)NC(=O)[C@H](C(C)C)N(C)C(=O)[C@@H](C(C)C)NC(=O)[C@H](C(C)C)NC(=O)[C@H]2CCCN2C(=O)[C@@H]2CCCN2C(=O)[C@H](C)NC(=O)[C@@H](CC(C)C)N(C)C(=O)[C@H]2CCCN2C1=O [Design D11.8] (cyclo(AP[dP]V[dV][NMeV]V[dP]I[dP][dNMeL]))	BQL

====

# Protocol details: Pharmacokinetics and oral bioavailability of D8.3.p1 and D10.1 in Balb/C female mice (PO, SQ, IV)
# Assay type: in vivo
# Assay context: female, Balb/C, mouse, plasma, iv, […], D10.1 IV […], mean n=3; read-out: Plasma clearance CLP

Cpd smiles	Unit label	clearance
CC[C@H](C)[C@@H]1NC(=O)[C@@H](CC(C)C)NC(=O)[C@H](CC(C)C)N(C)C(=O)[C@H](Cc2ccccc2)NC(=O)CN(C)C(=O)[C@@H]2CCCN2C(=O)[C@H](C(C)C)NC(=O)[C@H](Cc2ccccc2)N(C)C(=O)[C@H]2CCCN2C(=O)[C@H](CC(C)C)NC1=O	mL/min/kg	3.26

====

# Assay context: PAMPA
Where a SMILES comes first, the peptide text is derived from it. [ ]: non-standard residue; d: D form. dNMeF = CN[C@H](Cc1ccccc1)C(=O)O; NMeL = CN[C@@H](CC(C)C)C(=O)O; dNMeL = CN[C@H](CC(C)C)C(=O)O; Sar = CNCC(=O)O
Reported endpoint: PAMPA_Papp_Avg

Compound	Value measured
CC(C)C[C@@H]1NC(=O)[C@@H]2CCCN2C(=O)[C@H]2CCCN2C(=O)CN(C)C(=O)[C@@H](Cc2ccccc2)N(C)C(=O)[C@@H](CC(C)C)NC(=O)[C@@H](CC(C)C)N(C)C(=O)[C@@H]2CCCN2C(=O)[C@H](CC(C)C)N(C)C(=O)[C@H](CC(C)C)N(C)C1=O [Design D10.22] (cyclo(L[NMeL][NMeL]P[dNMeL][dL][dNMeF][Sar][dP]P))	BQL
CC(C)C[C@@H]1NC(=O)[C@@H]2CCCN2C(=O)[C@@H](Cc2ccccc2)NC(=O)[C@H](C)N(C)C(=O)[C@H](CC(C)C)NC(=O)[C@H](CC(C)C)N(C)C(=O)[C@@H](C)NC(=O)[C@@H](CC(C)C)NC(=O)[C@@H]2CCCN2C(=O)[C@@H](Cc2ccccc2)NC1=O (single isomer, unassigned) [Design D10.2.p1]	3.92E-06

====

# Protocol details: Pharmacokinetics and oral bioavailability of D11.2 in male SD rats (IV, PO, SQ)
# Assay type: in vivo
# Assay context: male, Sprague Dawley, rat, plasma, iv, 1 mg/kg, IV 1 mg/kg, Mean; read-out: Cmax
Where a SMILES comes first, the peptide text is derived from it. [ ]: non-standard residue; d: D form. NMeL = CN[C@@H](CC(C)C)C(=O)O; Sar = CNCC(=O)O

Molecule	Cmax [ng/mL]
CC[C@@H](C)[C@H]1NC(=O)[C@@H]2CCCN2C(=O)[C@@H]([C@H](C)CC)NC(=O)CN(C)C(=O)[C@H](CC(C)C)NC(=O)[C@@H](Cc2ccccc2)NC(=O)[C@H](CC(C)C)N(C)C(=O)[C@H]2CCCN2C(=O)[C@@H](CC(C)C)NC(=O)[C@H](CC(C)C)NC(=O)[C@H]2CCCN2C1=O [Design D11.2] (cyclo(L[Sar][dI]P[dI][dP]L[dL][dP][NMeL][dF]))	605

====

# Assay context: PAMPA
Where a SMILES comes first, the peptide text is derived from it. [ ]: non-standard residue; d: D form. NMeL = CN[C@@H](CC(C)C)C(=O)O; dNMeL = CN[C@H](CC(C)C)C(=O)O; NMeA = CN[C@@H](C)C(=O)O
// reported PAMPA_R3 per item
Reported endpoint: PAMPA_R3

Compound	Value measured
CC(C)C[C@@H]1C(=O)N[C@@H](C)C(=O)N[C@H](CC(C)C)C(=O)N(C)[C@@H](C)C(=O)N2CCC[C@@H]2C(=O)N2CCC[C@@H]2C(=O)N2CCC[C@@H]2C(=O)N2CCC[C@H]2C(=O)N[C@H](C(C)C)C(=O)N(C)[C@@H](CC(C)C)C(=O)N1C [Design D10.28] (cyclo([dV][NMeL][dNMeL]A[dL][NMeA][dP][dP][dP]P))	2.34E-07
CC(C)C[C@@H]1NC(=O)[C@@H](C(C)C)NC(=O)[C@H](CC(C)C)N(C)C(=O)[C@H]2CCCN2C(=O)[C@@H](C(C)C)NC(=O)[C@H]2CCCN2C(=O)[C@@H](C(C)C)NC(=O)[C@@H](Cc2ccccc2)N(C)C(=O)[C@H](CC(C)C)N(C)C1=O (single isomer, unassigned) [Design D9.8.p2]	8.61E-07
